All values here come from patent US20240058450A1.

# EC50 per record follows
Test system: Molt-4 human acute lymphoblastic leukemia cells
Assay: Molt-4 cell viability assay (CellTiter-Glo, 48 hours, 10% HS)
Type: cell-based
Conditions: non-permeabilized cells
measure: EC50

• Cc1c(-c2ccc(N3CCc4cccc(C(=O)Nc5nc6ccccc6s5)c4C3)nc2C(=O)O)cnn1CC12CC3(C)CC(C)(C1)CC(OCCN(C)C(=O)[C@H](N)CC(=O)O)(C3)C2 [Example 1.27] = 935 nM
• Cc1c(-c2ccc(N3CCc4cccc(C(=O)Nc5nc6ccccc6s5)c4C3)nc2C(=O)O)cnn1CC12CC3(C)CC(C)(C1)CC(OCCN(CCOCCOCCN)Cc1ccc(CC4O[C@H](C(=O)O)[C@@H](O)[C@H](O)[C@H]4O)cc1)(C3)C2 (stereo partly drawn) [Example 1.18] = 3330 nM
• Cc1c(-c2ccc(N3CCc4cccc(C(=O)Nc5nc6ccccc6s5)c4C3)nc2C(=O)O)cnn1CC12CC3(C)CC(C)(C1)CC(OCCN(C)C(=O)[C@@H](N)CCCC[N+](C)(C)C)(C3)C2 [Example 1.29] = 935 nM
